// reported protein stability index per item
B1: ZBED2 (parent)
chain: RAGHHPNQYATCRLCGRQVSRGPG

variants of: B1; assay: protein stability index of a GFP-peptide fusion (GPS, HEK-293T) (PSI 1-6); higher = more stable; conditions: c terminus: a fixed tail appended;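 note: lentivirally expressed fusions sorted by FACS into six bins by GFP to DsRed ratio, PSI derived from sequencing read proportions per bin multiplied by bin number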
Please state the value as a number alone, without comment.

protein stability index measured on S20D = 1.93

protein stability index measured on T11M = 3.7

protein stability index measured on Y9S = 2.72
